tested on: SYO-1 tumor spheroids, viability % test/control; test: Anticancer human tumor SYO-1 cell line growth inhibition; conditions: second compound 0.0003 µM; first compound 3.16 µM; stronger effect = lower value; spheroids with HUVEC and MSC;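 further: spheroids exposed to agents for 7 days before viability read; 100% = DMSO vehicle control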
Consider the cut-off 3%. If the recorded viability, T/C is strictly smaller, the label is T; if not, the label is F.

Check out these entries, answers already filled in.
| Compound | Category Label |
| --- | --- |
| CC1COCCN1c1cc(-c2ccnn2C)c2ccnc(-c3ccn[nH]3)c2n1 (stereo unspecified) + COc1cc2c(cc1O)CCNC21CSC2c3c(OC(C)=O)c(C)c4c(c3C(COC1=O)N1C(O)C3Cc5cc(C)c(OC)c(O)c5C(C21)N3C)OCO4 | T |
| COc1ccc([C@@H](O)c2cc(-c3ncnc4cc(N5CCOCC5)ccc34)c(F)cc2Cl)nn1 + COc1cc2c(cc1O)CCNC21CSC2c3c(OC(C)=O)c(C)c4c(c3C(COC1=O)N1C(O)C3Cc5cc(C)c(OC)c(O)c5C(C21)N3C)OCO4 | T |
| [2H]c1nc(C)nc([2H])c1-c1cc(NC[C@@H](C)c2cccc3c(C(=O)NC)ccnc23)ncn1 + COc1cc2c(cc1O)CCNC21CSC2c3c(OC(C)=O)c(C)c4c(c3C(COC1=O)N1C(O)C3Cc5cc(C)c(OC)c(O)c5C(C21)N3C)OCO4 | F |

**Query** Does this compound meet the criterion viability, T/C < 3%? CC(C)n1c(=O)n(C)c2cnc3cc(F)c(-c4ccc(OCCCN5CCCCC5)nc4)cc3c21 + COc1cc2c(cc1O)CCNC21CSC2c3c(OC(C)=O)c(C)c4c(c3C(COC1=O)N1C(O)C3Cc5cc(C)c(OC)c(O)c5C(C21)N3C)OCO4
**Result** T

**Query** Also need Cc1cc(C)c(CNC(=O)c2cc(-c3ccc(CN4CCOCC4)cc3)cc3c2cnn3C2CCCC2)c(=O)[nH]1 + COc1cc2c(cc1O)CCNC21CSC2c3c(OC(C)=O)c(C)c4c(c3C(COC1=O)N1C(O)C3Cc5cc(C)c(OC)c(O)c5C(C21)N3C)OCO4 , thanks.
**Result** F

**Query** Also need COc1cc(C)[nH]c(=O)c1CN1CCc2c(Cl)cc(C(OC)C3COC3)c(Cl)c2C1=O (stereo unspecified) + COc1cc2c(cc1O)CCNC21CSC2c3c(OC(C)=O)c(C)c4c(c3C(COC1=O)N1C(O)C3Cc5cc(C)c(OC)c(O)c5C(C21)N3C)OCO4 , thanks.
**Result** T

----------
system: SYO-1 tumor spheroids, viability % test/control; test: Anticancer human tumor SYO-1 cell line growth inhibition; conditions: second compound 0.0003 µM; first compound 0.0949 µM; stronger effect = lower value; spheroids with HUVEC and MSC;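 further: spheroids exposed to agents for 7 days before viability read; 100% = DMSO vehicle control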
Below, each of the compounds is paired with its reported viability, T/C value.
Enter your answer as a number in %; do not include the unit.

Known viability, T/C results, listed for orientation:
| Compound | Assayed Target | viability, T/C (%) |
| --- | --- | --- |
| Cc1sc2c(c1C)C(c1ccc(Cl)cc1)=NC(CC(=O)Nc1ccc(O)cc1)c1nnc(C)n1-2 (centres undefined) + COc1cc2c(cc1O)CCNC21CSC2c3c(OC(C)=O)c(C)c4c(c3C(COC1=O)N1C(O)C3Cc5cc(C)c(OC)c(O)c5C(C21)N3C)OCO4 | SYO-1 tumor spheroids, viability % test/control | 0.68 |
| CNCc1ccc(-c2cc(-c3nc(-c4ccc(S(=O)(=O)C(C)C)cc4)cnc3N)on2)cc1 + COc1cc2c(cc1O)CCNC21CSC2c3c(OC(C)=O)c(C)c4c(c3C(COC1=O)N1C(O)C3Cc5cc(C)c(OC)c(O)c5C(C21)N3C)OCO4 | SYO-1 tumor spheroids, viability % test/control | 2.02 |
| O=C(c1cc(Cc2n[nH]c(=O)c3ccccc23)ccc1F)N1CCN(C(=O)C2CC2)CC1 + COc1cc2c(cc1O)CCNC21CSC2c3c(OC(C)=O)c(C)c4c(c3C(COC1=O)N1C(O)C3Cc5cc(C)c(OC)c(O)c5C(C21)N3C)OCO4 | SYO-1 tumor spheroids, viability % test/control | 6.93 |

Kindly consider the entry below.
**Query** Can you look up the measured viability, T/C of Cn1ncnc1[C@H]1c2n[nH]c(=O)c3cc(F)cc(c23)N[C@@H]1c1ccc(F)cc1 + COc1cc2c(cc1O)CCNC21CSC2c3c(OC(C)=O)c(C)c4c(c3C(COC1=O)N1C(O)C3Cc5cc(C)c(OC)c(O)c5C(C21)N3C)OCO4 for me?
**Result** 1.38

----------
Below, each of the molecules is paired with its reported viability, T/C value.
test system: SYO-1 tumor spheroids, viability % test/control; experiment: Anticancer human tumor SYO-1 cell line growth inhibition; details: second compound 0.000949 µM; first compound 3.16 µM; stronger effect = lower value; spheroids with HUVEC and MSC;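 further: spheroids exposed to agents for 7 days before viability read; 100% = DMSO vehicle control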
Enter your answer as a number in %; do not include the unit.

Known viability, T/C results, listed for orientation:
| Molecule | Uom | viability, T/C |
| --- | --- | --- |
| CC1COCCN1c1cc(-c2ccnn2C)c2ccnc(-c3ccn[nH]3)c2n1 (stereo unspecified) + COc1cc2c(cc1O)CCNC21CSC2c3c(OC(C)=O)c(C)c4c(c3C(COC1=O)N1C(O)C3Cc5cc(C)c(OC)c(O)c5C(C21)N3C)OCO4 | % | 0.2 |
| Cc1cc(C)c(CNC(=O)c2cc(-c3ccc(CN4CCOCC4)cc3)cc3c2cnn3C2CCCC2)c(=O)[nH]1 + COc1cc2c(cc1O)CCNC21CSC2c3c(OC(C)=O)c(C)c4c(c3C(COC1=O)N1C(O)C3Cc5cc(C)c(OC)c(O)c5C(C21)N3C)OCO4 | % | 0.9 |

**Query** Can you look up the measured viability, T/C of COc1ccc([C@@H](O)c2cc(-c3ncnc4cc(N5CCOCC5)ccc34)c(F)cc2Cl)nn1 + COc1cc2c(cc1O)CCNC21CSC2c3c(OC(C)=O)c(C)c4c(c3C(COC1=O)N1C(O)C3Cc5cc(C)c(OC)c(O)c5C(C21)N3C)OCO4 for me?
**Result** 0.03

**Query** Also need CC(C)n1c(=O)n(C)c2cnc3cc(F)c(-c4ccc(OCCCN5CCCCC5)nc4)cc3c21 + COc1cc2c(cc1O)CCNC21CSC2c3c(OC(C)=O)c(C)c4c(c3C(COC1=O)N1C(O)C3Cc5cc(C)c(OC)c(O)c5C(C21)N3C)OCO4 , thanks.
**Result** 0.96

**Query** Also need COc1cc(C)[nH]c(=O)c1CN1CCc2c(Cl)cc(C(OC)C3COC3)c(Cl)c2C1=O (stereo unspecified) + COc1cc2c(cc1O)CCNC21CSC2c3c(OC(C)=O)c(C)c4c(c3C(COC1=O)N1C(O)C3Cc5cc(C)c(OC)c(O)c5C(C21)N3C)OCO4 , thanks.
**Result** 0.86

**Query** Also need [2H]c1nc(C)nc([2H])c1-c1cc(NC[C@@H](C)c2cccc3c(C(=O)NC)ccnc23)ncn1 + COc1cc2c(cc1O)CCNC21CSC2c3c(OC(C)=O)c(C)c4c(c3C(COC1=O)N1C(O)C3Cc5cc(C)c(OC)c(O)c5C(C21)N3C)OCO4 , thanks.
**Result** 0.92

----------
Test system: SYO-1 tumor spheroids, viability % test/control
Assay: Anticancer human tumor SYO-1 cell line growth inhibition;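 further: spheroids exposed to agents for 7 days before viability read; 100% = DMSO vehicle control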
Conditions: second compound 0.0003 µM; first compound 1 µM; stronger effect = lower value; spheroids with HUVEC and MSC
Method: Multicellular complex tumor spheroid response to DNA repair inhibitors in combination with DNA-damaging drugs This study explores the anticancer activities of DNA-damaging drugs and inhibitors of DNA damage repair, both as single agents and in combinations. […] Twenty-six patient-derived or established malignant cell lines were evaluated representing sarcoma, melanoma, small cell lung cancer (SCLC), non-small cell lung cancer (NSCLC), as well as bladder, ovarian and pancreatic cancers. […]
Measurement Kind: viability, T/C

| Molecule | viability, T/C |
| --- | --- |
| COc1ccc([C@@H](O)c2cc(-c3ncnc4cc(N5CCOCC5)ccc34)c(F)cc2Cl)nn1 + COc1cc2c(cc1O)CCNC21CSC2c3c(OC(C)=O)c(C)c4c(c3C(COC1=O)N1C(O)C3Cc5cc(C)c(OC)c(O)c5C(C21)N3C)OCO4 | 1.34% |
| CC1COCCN1c1cc(-c2ccnn2C)c2ccnc(-c3ccn[nH]3)c2n1 (stereo unspecified) + COc1cc2c(cc1O)CCNC21CSC2c3c(OC(C)=O)c(C)c4c(c3C(COC1=O)N1C(O)C3Cc5cc(C)c(OC)c(O)c5C(C21)N3C)OCO4 | 0.63% |
| Cc1cc(C)c(CNC(=O)c2cc(-c3ccc(CN4CCOCC4)cc3)cc3c2cnn3C2CCCC2)c(=O)[nH]1 + COc1cc2c(cc1O)CCNC21CSC2c3c(OC(C)=O)c(C)c4c(c3C(COC1=O)N1C(O)C3Cc5cc(C)c(OC)c(O)c5C(C21)N3C)OCO4 | 11% |

**Query** Can you look up the measured viability, T/C of COc1cc(C)[nH]c(=O)c1CN1CCc2c(Cl)cc(C(OC)C3COC3)c(Cl)c2C1=O (stereo unspecified) + COc1cc2c(cc1O)CCNC21CSC2c3c(OC(C)=O)c(C)c4c(c3C(COC1=O)N1C(O)C3Cc5cc(C)c(OC)c(O)c5C(C21)N3C)OCO4 for me?
**Result** 3.14%

**Query** Also need [2H]c1nc(C)nc([2H])c1-c1cc(NC[C@@H](C)c2cccc3c(C(=O)NC)ccnc23)ncn1 + COc1cc2c(cc1O)CCNC21CSC2c3c(OC(C)=O)c(C)c4c(c3C(COC1=O)N1C(O)C3Cc5cc(C)c(OC)c(O)c5C(C21)N3C)OCO4 , thanks.
**Result** 11.5%

**Query** Also need CC(C)n1c(=O)n(C)c2cnc3cc(F)c(-c4ccc(OCCCN5CCCCC5)nc4)cc3c21 + COc1cc2c(cc1O)CCNC21CSC2c3c(OC(C)=O)c(C)c4c(c3C(COC1=O)N1C(O)C3Cc5cc(C)c(OC)c(O)c5C(C21)N3C)OCO4 , thanks.
**Result** 3.23%
